Biological target: BChE (Homo sapiens, UniProt P06276)
Sequence (P06276 29-602): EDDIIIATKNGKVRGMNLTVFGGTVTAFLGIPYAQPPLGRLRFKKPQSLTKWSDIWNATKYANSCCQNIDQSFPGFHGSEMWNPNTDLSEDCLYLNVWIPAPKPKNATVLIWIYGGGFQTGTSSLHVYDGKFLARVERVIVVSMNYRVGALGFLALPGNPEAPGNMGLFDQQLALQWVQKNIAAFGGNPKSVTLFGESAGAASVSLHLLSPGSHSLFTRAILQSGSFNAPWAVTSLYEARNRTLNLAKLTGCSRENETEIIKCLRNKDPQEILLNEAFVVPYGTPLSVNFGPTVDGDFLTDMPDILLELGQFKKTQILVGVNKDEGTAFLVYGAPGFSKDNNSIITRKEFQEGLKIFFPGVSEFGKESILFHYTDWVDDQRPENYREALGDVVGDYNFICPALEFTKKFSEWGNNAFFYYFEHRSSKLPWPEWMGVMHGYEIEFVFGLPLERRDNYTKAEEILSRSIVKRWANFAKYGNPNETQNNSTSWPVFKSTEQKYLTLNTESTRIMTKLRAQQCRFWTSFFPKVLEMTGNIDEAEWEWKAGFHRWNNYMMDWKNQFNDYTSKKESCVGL
Assay: biochemical
Conditions: 10^–4 M
Protocol: According to the modified Ellman approach outlined in our team’s earlier work, the AChE and BChE inhibitory activities of the obtained compounds were evaluated.[18]−[21]
endpoint: inhibition at 100 µM (%)
// return numeric value only (unit: %, not printed)

Consider the reported inhibition at 100 µM for these compounds:
{"columns": ["compound", "experimental.target", "inhibition at 100 µM (%)"],
 "data": [
  ["COc1ccc2c(c1)C(=O)/C(=C/c1ccc(NC(=O)CN3CCN(C)CC3)cc1)C2 [D2]", "BChE (Homo sapiens, UniProt P06276)", 23.6],
  ["C=CCN1CCN(CC(=O)Nc2ccc(/C=C3\\Cc4cc(OC)ccc4C3=O)cc2)CC1 [D7]", "BChE (Homo sapiens, UniProt P06276)", 21.2],
  ["COc1cc2c(cc1OC)C(=O)/C(=C/c1ccc(NC(=O)CN3CCN(CCCN(C)C)CC3)cc1)C2 [D27]", "BChE (Homo sapiens, UniProt P06276)", 35.9]
]}

Below: the item to evaluate.
Query: Need inhibition at 100 µM, item COc1cc2c(cc1OC)C(=O)/C(=C/c1ccc(NC(=O)CN3CCN(CCCO)CC3)cc1)C2 [D21]
Reply: 40.6
